- experimental-system: Hck (UniProt P08631)
- Sequence (P08631 whole entry, looked up): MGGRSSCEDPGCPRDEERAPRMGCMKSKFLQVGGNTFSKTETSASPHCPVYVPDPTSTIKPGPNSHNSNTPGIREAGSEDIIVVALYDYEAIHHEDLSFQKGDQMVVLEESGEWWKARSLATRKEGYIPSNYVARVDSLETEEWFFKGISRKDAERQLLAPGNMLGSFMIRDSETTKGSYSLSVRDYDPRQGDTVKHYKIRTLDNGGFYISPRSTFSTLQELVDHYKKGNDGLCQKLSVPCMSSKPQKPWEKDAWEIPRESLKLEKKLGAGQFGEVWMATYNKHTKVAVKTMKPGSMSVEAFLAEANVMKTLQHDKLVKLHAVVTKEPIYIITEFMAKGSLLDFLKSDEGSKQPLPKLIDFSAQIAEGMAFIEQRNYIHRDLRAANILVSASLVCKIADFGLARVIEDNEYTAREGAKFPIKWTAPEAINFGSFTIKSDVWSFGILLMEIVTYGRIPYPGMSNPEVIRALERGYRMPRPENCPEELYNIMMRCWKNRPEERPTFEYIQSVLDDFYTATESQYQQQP
- test-summary: phosphorylation enrichment, bacterial display (enrichment ratio); higher = better substrate or ligand; peptides without Tyr show the background;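 note: 11-residue human phosphosite peptides and single-mutation variants displayed on the E. coli surface, counted by deep sequencing, each peptide's frequency after selection divided by its frequency in the unselected input library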;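 note: frequency after pTyr selection over input frequency; kinase dosed for 20-30% of maximal phosphorylation in three min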
reported-property: phosphorylation enrichment
Response field accepts a number only; no unit should be typed.

The examples below pair each entry with its known result.
# item-sequence, meas-value
records = [
    ("EEKSCYILHSS [PATJ_Y783_E780K]", 0.651),
    ("PVKAAYQKVVA [HBB_Y131_Q128K]", 0.539),
    ("PGVDIYISPNM [PADI3_Y51]", 1.38),
    ("VICRRYLVMQR [IL3RA_Y328]", 0.487),
    ("IKAGAYDFPSL [CAMK2A_Y230_P235L]", 0.382),
]

IN: I have this sequence here, PPPPAYDDMAQ [TNK2_Y635_V638M] , and I need its recorded phosphorylation enrichment.
OUT: 0.647

IN: Can you handle PLGVPYLDKPP [JMJD7_Y31_A28G] next?
OUT: 0.463
